Give EC50 (read off the curve) for every item shown.
Molecular target: T1, human UCN1 peptide, biotinylated (human, UniProt P55089 83-122, biotin at N- or C-terminus)
T1 construct: also called hUCN1 (NT Biotin); hUCN1 (CT Biotin)
T1 peptide (looked up): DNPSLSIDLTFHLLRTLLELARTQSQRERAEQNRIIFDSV
Assay: ELISA, hUCN1 (NT biotin)

Query: // query EC50 (read off the curve) value for entry PR302309-11 (antibody, human IgG1, kappa, V domains shown) VH: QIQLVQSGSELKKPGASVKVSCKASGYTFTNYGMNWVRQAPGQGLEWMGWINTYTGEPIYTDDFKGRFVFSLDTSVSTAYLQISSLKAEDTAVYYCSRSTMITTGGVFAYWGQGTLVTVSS VL: DIVMTQTPLSSPVTLGQPASISCRSSQTIVHSDGNTYLEWLQQRPGQPPRLLIYKVSNRFSGVPDRFSGSGAGTDFTLKISRVEAEDVGVYYCFQGSHVPWTFGGGTKVEIKR
Response: ~0.07 nM

Query: Also PR302064 (antibody, human IgG1, kappa, V domains shown) VH: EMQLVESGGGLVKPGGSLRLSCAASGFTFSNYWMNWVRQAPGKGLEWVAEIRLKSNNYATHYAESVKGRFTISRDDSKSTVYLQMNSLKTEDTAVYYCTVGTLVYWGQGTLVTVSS VL: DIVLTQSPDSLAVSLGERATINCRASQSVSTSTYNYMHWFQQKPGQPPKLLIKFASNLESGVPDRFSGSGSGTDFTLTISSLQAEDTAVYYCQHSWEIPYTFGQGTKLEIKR ?
Response: ~0.1 nM

Query: Also PR302341-34 (antibody, human IgG1, kappa, V domains shown) VH: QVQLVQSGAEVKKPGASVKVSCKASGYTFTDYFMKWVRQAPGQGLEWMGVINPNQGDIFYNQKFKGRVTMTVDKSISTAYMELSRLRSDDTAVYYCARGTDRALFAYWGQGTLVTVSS VL: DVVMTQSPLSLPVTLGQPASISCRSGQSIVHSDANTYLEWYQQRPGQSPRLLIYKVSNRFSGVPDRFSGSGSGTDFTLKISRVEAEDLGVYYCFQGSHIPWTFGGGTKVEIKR ?
Response: ~0.02 nM

Query: Also PR302309-18 (antibody, human IgG1, kappa, V domains shown) VH: QVQLVQSGAEVKKPGASVKVSCKASGYTFTNYGMNWVRQAPGQRLEWMGWINTYTGEPIYTDDFKGRVTITRDTSASTAYMELSSLRSEDTAVYYCARSTMITTGGVFAYWGQGTLVTVSS VL: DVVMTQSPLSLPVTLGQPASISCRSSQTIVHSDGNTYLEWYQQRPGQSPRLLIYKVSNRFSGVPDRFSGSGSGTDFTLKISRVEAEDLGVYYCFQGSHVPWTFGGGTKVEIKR ?
Response: ~0.1 nM
